Target: T1, iCAL3610
T1 chain: ANSRWPTSII
Assay: fluorescence polarization competition
Reported endpoint: Ki

Before answering, review these 3 worked examples.
1. NHERF2 PDZ1 (protein) RPRLCRLVRGEQGYGFHLHGEKGRRGQFIRRVEPGSPAEAAALRAGDRLVEVNGVNVEGETHHQVVQRIKAVEGQTRLLVVDQETD    > 5 mM
2. NHERF2 PDZ2 (protein) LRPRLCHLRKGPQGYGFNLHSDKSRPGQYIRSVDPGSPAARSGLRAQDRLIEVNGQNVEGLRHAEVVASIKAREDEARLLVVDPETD    > 3 mM
3. NHERF1 PDZ2 (protein) RPRLCTMKKGPSGYGFNLHSDKSKPGQFIRSVDPDSPAEASGLRAQDRIVEVNGVCMEGKQHGDVVSAIRAGGDETKLLVVDRETDE    > 5 mM

// below: Ki requested for another binder
Task item: Query: Ki; subject: NHERF1 PDZ1 (protein) LPRLCCLEKGPNGYGFHLHGEKGKLGQYIRLVEPGSPAEKAGLLAGDRLVEVNGENVEKETHQQVVSRIRAALNAVRLLVVDPETDE
Reply: > 5 mM
